Target: MAPKAP-K2 (Homo sapiens, UniProt P49137)
Sequence (P49137 whole entry): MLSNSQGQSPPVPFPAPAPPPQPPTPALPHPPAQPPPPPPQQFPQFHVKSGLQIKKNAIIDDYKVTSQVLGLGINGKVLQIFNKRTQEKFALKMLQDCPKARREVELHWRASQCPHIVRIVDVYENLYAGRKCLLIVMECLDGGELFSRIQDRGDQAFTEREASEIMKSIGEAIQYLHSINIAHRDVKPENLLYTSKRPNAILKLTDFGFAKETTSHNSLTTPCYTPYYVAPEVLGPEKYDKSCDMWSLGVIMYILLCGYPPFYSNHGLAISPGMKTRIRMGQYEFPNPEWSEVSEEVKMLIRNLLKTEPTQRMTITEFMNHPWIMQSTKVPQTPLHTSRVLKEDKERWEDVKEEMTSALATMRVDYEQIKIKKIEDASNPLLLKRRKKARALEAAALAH
Experiment: MAPKAP-K2 enzyme activity inhibition (33P-ATP filter plate kinase assay); also: key: +: active; ++: more active; +++: very active
Format: biochemical
Conditions: MAPKAP-K2 inhibitory activity; assays conducted at typically 1-100 μM
Metric: activity (efficacy against MAPKAP-K2)

Take a look at these entries with their results.
| Compound | Result |
| --- | --- |
| Cc1c(N[C@H]2CC[C@H](N)CC2)nc2ccnn2c1Nc1cccc(O)c1 [Compound 88] | +++ |
| Cc1c(N[C@H]2CC[C@H](N)CC2)nc2ccnn2c1Nc1ccc2c(c1)OCCO2 [Compound 126] | +++ |
| Cc1c(N[C@H]2CC[C@H](N)CC2)nc2ccnn2c1Nc1ccc(OCc2cccnc2)cc1 [Compound 222] | +++ |
| Cc1c(N[C@H]2CC[C@H](N)CC2)nc2ccnn2c1Nc1ccc(-c2ccc(F)cc2)cc1 [Compound 303] | +++ |
| CC(C)c1c(N[C@H]2CC[C@H](N)CC2)nc2ccnn2c1Nc1ccc(F)c(Cl)c1 [Compound 115] | +++ |

[ask] What is its activity (efficacy against MAPKAP-K2) for MAPKAP-K2 (Homo sapiens, UniProt P49137)? Entry: CCc1c(N[C@H]2CC[C@H](N)CC2)nc2ccnn2c1Nc1cccc(OCc2ccccc2)c1 [Compound 74]
[reply] ++

[ask] What is its activity (efficacy against MAPKAP-K2) for MAPKAP-K2 (Homo sapiens, UniProt P49137)? Entry: CCc1c(N[C@H]2CC[C@H](N)CC2)nc2ccnn2c1Nc1ccccc1OC [Compound 42]
[reply] ++

[ask] What is its activity (efficacy against MAPKAP-K2) for MAPKAP-K2 (Homo sapiens, UniProt P49137)? Entry: Cc1cccc(-c2ccc(Nc3c(C)c(N[C@H]4CC[C@H](N)CC4)nc4ccnn34)cc2)c1 [Compound 320]
[reply] +++

[ask] What is its activity (efficacy against MAPKAP-K2) for MAPKAP-K2 (Homo sapiens, UniProt P49137)? Entry: CCOc1ccc(Nc2c(C)c(N(C)C3CCCNC3)nc3ccnn23)cc1 (centres unmarked) [Compound 340]
[reply] +
